Recorded 8OG:A repair function score values for a group of variants are listed next.
B1: library; numbered along this chain (parent)
chain: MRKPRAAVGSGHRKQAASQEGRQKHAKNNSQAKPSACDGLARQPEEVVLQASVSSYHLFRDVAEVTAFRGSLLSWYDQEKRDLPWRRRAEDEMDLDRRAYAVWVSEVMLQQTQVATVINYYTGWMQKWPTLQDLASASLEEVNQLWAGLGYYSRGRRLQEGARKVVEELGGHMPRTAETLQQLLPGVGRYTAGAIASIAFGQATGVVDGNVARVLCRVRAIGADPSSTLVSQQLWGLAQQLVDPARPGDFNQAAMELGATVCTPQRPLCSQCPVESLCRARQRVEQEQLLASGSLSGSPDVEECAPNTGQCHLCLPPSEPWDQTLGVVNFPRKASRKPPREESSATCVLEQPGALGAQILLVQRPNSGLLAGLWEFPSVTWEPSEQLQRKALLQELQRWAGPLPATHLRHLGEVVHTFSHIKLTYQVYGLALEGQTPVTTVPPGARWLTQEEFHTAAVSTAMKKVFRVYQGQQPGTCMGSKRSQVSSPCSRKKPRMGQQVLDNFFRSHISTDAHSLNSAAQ

# Variants of: B1
# test method notes: 8OG:A repair function score (normalized; synonymous = 0, nonsense = -1) (normalized log-likelihood score); higher = more repair activity (WT-like);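 further: cells sorted at 72 h after reporter transfection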
# condition notes: with 8OG:A DNA repair reporter (GFP) in HEK-293 MUTYH KO cells
experimental endpoint: 8OG:A repair function score

{"mutation id": "P331H", "experimental endpoint": "8OG:A repair function score", "result": -0.439}
{"mutation id": "R97C", "experimental endpoint": "8OG:A repair function score", "result": 0.00684}
{"mutation id": "T460Y", "experimental endpoint": "8OG:A repair function score", "result": -0.219}
{"mutation id": "V415Y", "experimental endpoint": "8OG:A repair function score", "result": -0.275}
{"mutation id": "N210L", "experimental endpoint": "8OG:A repair function score", "result": -0.937}
{"mutation id": "Q182W", "experimental endpoint": "8OG:A repair function score", "result": -0.114}
{"mutation id": "L396R", "experimental endpoint": "8OG:A repair function score", "result": -0.992}
{"mutation id": "I198F", "experimental endpoint": "8OG:A repair function score", "result": -0.447}
{"mutation id": "K422N", "experimental endpoint": "8OG:A repair function score", "result": -0.21}
{"mutation id": "E395K", "experimental endpoint": "8OG:A repair function score", "result": -0.345}
{"mutation id": "F250V", "experimental endpoint": "8OG:A repair function score", "result": -0.797}
{"mutation id": "E90S", "experimental endpoint": "8OG:A repair function score", "result": -0.0214}
{"mutation id": "A520I", "experimental endpoint": "8OG:A repair function score", "result": -0.0239}
{"mutation id": "S298F", "experimental endpoint": "8OG:A repair function score", "result": -0.0178}
{"mutation id": "D61F", "experimental endpoint": "8OG:A repair function score", "result": -0.794}
{"mutation id": "R97E", "experimental endpoint": "8OG:A repair function score", "result": 0.00633}
{"mutation id": "E319M", "experimental endpoint": "8OG:A repair function score", "result": -0.0278}
{"mutation id": "E342L", "experimental endpoint": "8OG:A repair function score", "result": 0.0472}
{"mutation id": "V274K", "experimental endpoint": "8OG:A repair function score", "result": -1.03}
{"mutation id": "E319S", "experimental endpoint": "8OG:A repair function score", "result": 0.0138}
{"mutation id": "S487T", "experimental endpoint": "8OG:A repair function score", "result": -0.0203}
{"mutation id": "L411Y", "experimental endpoint": "8OG:A repair function score", "result": 0.251}
{"mutation id": "L448C", "experimental endpoint": "8OG:A repair function score", "result": -0.0248}
{"mutation id": "G356T", "experimental endpoint": "8OG:A repair function score", "result": -0.197}
{"mutation id": "L361W", "experimental endpoint": "8OG:A repair function score", "result": -0.755}
{"mutation id": "S378K", "experimental endpoint": "8OG:A repair function score", "result": -0.24}
{"mutation id": "D512V", "experimental endpoint": "8OG:A repair function score", "result": 0.00239}
{"mutation id": "Q499T", "experimental endpoint": "8OG:A repair function score", "result": -0.00713}
{"mutation id": "A253Q", "experimental endpoint": "8OG:A repair function score", "result": -1.02}
{"mutation id": "T324L", "experimental endpoint": "8OG:A repair function score", "result": -0.000813}
{"mutation id": "E341C", "experimental endpoint": "8OG:A repair function score", "result": -0.0275}
{"mutation id": "P264I", "experimental endpoint": "8OG:A repair function score", "result": -0.1}
{"mutation id": "Q435Y", "experimental endpoint": "8OG:A repair function score", "result": 0.0772}
{"mutation id": "L95E", "experimental endpoint": "8OG:A repair function score", "result": -0.00548}
{"mutation id": "P84Q", "experimental endpoint": "8OG:A repair function score", "result": -0.242}
{"mutation id": "G372N", "experimental endpoint": "8OG:A repair function score", "result": -0.294}
{"mutation id": "M462K", "experimental endpoint": "8OG:A repair function score", "result": -1.21}
{"mutation id": "A41M", "experimental endpoint": "8OG:A repair function score", "result": -0.0227}
{"mutation id": "L315S", "experimental endpoint": "8OG:A repair function score", "result": -0.102}
{"mutation id": "P129H", "experimental endpoint": "8OG:A repair function score", "result": -0.193}
{"mutation id": "G326A", "experimental endpoint": "8OG:A repair function score", "result": -0.264}
{"mutation id": "S344I", "experimental endpoint": "8OG:A repair function score", "result": -0.0592}
{"mutation id": "K337F", "experimental endpoint": "8OG:A repair function score", "result": -0.221}
{"mutation id": "L149I", "experimental endpoint": "8OG:A repair function score", "result": -0.462}
{"mutation id": "G205H", "experimental endpoint": "8OG:A repair function score", "result": -0.8}
{"mutation id": "A371Y", "experimental endpoint": "8OG:A repair function score", "result": -0.46}
{"mutation id": "S52N", "experimental endpoint": "8OG:A repair function score", "result": -0.0834}
{"mutation id": "T112D", "experimental endpoint": "8OG:A repair function score", "result": -1.3}
{"mutation id": "H454Q", "experimental endpoint": "8OG:A repair function score", "result": -0.0422}
{"mutation id": "S343E", "experimental endpoint": "8OG:A repair function score", "result": -0.015}
{"mutation id": "A445R", "experimental endpoint": "8OG:A repair function score", "result": -0.53}
{"mutation id": "E64V", "experimental endpoint": "8OG:A repair function score", "result": -0.0293}
{"mutation id": "P474I", "experimental endpoint": "8OG:A repair function score", "result": -0.014}
{"mutation id": "G368T", "experimental endpoint": "8OG:A repair function score", "result": -0.332}
{"mutation id": "G205S", "experimental endpoint": "8OG:A repair function score", "result": -0.352}
{"mutation id": "T260F", "experimental endpoint": "8OG:A repair function score", "result": -0.281}
{"mutation id": "C489D", "experimental endpoint": "8OG:A repair function score", "result": 0.013}
{"mutation id": "A357I", "experimental endpoint": "8OG:A repair function score", "result": -0.0394}
{"mutation id": "Q282G", "experimental endpoint": "8OG:A repair function score", "result": -0.0596}
{"mutation id": "E46D", "experimental endpoint": "8OG:A repair function score", "result": 0.0496}
{"mutation id": "A162S", "experimental endpoint": "8OG:A repair function score", "result": -0.159}
{"mutation id": "W75R", "experimental endpoint": "8OG:A repair function score", "result": -1.13}
{"mutation id": "P383V", "experimental endpoint": "8OG:A repair function score", "result": -0.163}
{"mutation id": "H514K", "experimental endpoint": "8OG:A repair function score", "result": 0.0132}
{"mutation id": "F376N", "experimental endpoint": "8OG:A repair function score", "result": -1.17}
{"mutation id": "P129W", "experimental endpoint": "8OG:A repair function score", "result": -0.109}
{"mutation id": "T130Y", "experimental endpoint": "8OG:A repair function score", "result": -0.392}
{"mutation id": "T455K", "experimental endpoint": "8OG:A repair function score", "result": -0.247}
{"mutation id": "G368W", "experimental endpoint": "8OG:A repair function score", "result": -0.913}
{"mutation id": "R42T", "experimental endpoint": "8OG:A repair function score", "result": -0.0609}
{"mutation id": "L145Y", "experimental endpoint": "8OG:A repair function score", "result": 0.0659}
{"mutation id": "Q484N", "experimental endpoint": "8OG:A repair function score", "result": 0.0201}
{"mutation id": "Q232F", "experimental endpoint": "8OG:A repair function score", "result": -0.308}
{"mutation id": "I118T", "experimental endpoint": "8OG:A repair function score", "result": -0.0724}
{"mutation id": "W321F", "experimental endpoint": "8OG:A repair function score", "result": -0.00541}
{"mutation id": "S292N", "experimental endpoint": "8OG:A repair function score", "result": -0.0335}
{"mutation id": "E178W", "experimental endpoint": "8OG:A repair function score", "result": -0.0455}
{"mutation id": "A245C", "experimental endpoint": "8OG:A repair function score", "result": -0.113}
{"mutation id": "G471M", "experimental endpoint": "8OG:A repair function score", "result": 0.011}
{"mutation id": "R154L", "experimental endpoint": "8OG:A repair function score", "result": -1.06}
{"mutation id": "S74P", "experimental endpoint": "8OG:A repair function score", "result": 0.00278}
{"mutation id": "P273A", "experimental endpoint": "8OG:A repair function score", "result": -0.171}
{"mutation id": "R279G", "experimental endpoint": "8OG:A repair function score", "result": -0.388}
{"mutation id": "S343L", "experimental endpoint": "8OG:A repair function score", "result": -0.124}
{"mutation id": "K337T", "experimental endpoint": "8OG:A repair function score", "result": -0.131}
{"mutation id": "A431F", "experimental endpoint": "8OG:A repair function score", "result": -0.237}
{"mutation id": "D96R", "experimental endpoint": "8OG:A repair function score", "result": -0.506}
{"mutation id": "V218D", "experimental endpoint": "8OG:A repair function score", "result": -0.983}
{"mutation id": "C278Q", "experimental endpoint": "8OG:A repair function score", "result": -1.14}
{"mutation id": "C272V", "experimental endpoint": "8OG:A repair function score", "result": -1.12}
{"mutation id": "E319G", "experimental endpoint": "8OG:A repair function score", "result": -0.0752}
